Tested on: MCF-7M
Format: cell-based, human
Settings: mcf-7m cells
Protocol: Cytotoxicity of the compounds to human breast cancer cells in vitro was assessed using a panel of cell lines representing estrogen receptor-positive (BT20, MCF-7m), and a pair of estrogen receptor-negative, transformed breast (11S578t) and normal breast (HS578Bst) cells. Thy: tritiated […] assay (n = 3 ± SEM)
reported endpoint: IC50
# output: numeric value plus its unit

Input line: Which measured IC50 value corresponds to C[n+]1ccc(-c2c3nc(c(-c4cc[n+](C)cc4)c4ccc([n-]4)c(-c4cc[n+](C)cc4)c4nc(c(-c5cc[n+](C)cc5)c5ccc2[n-]5)C=C4)C=C3)cc1.[Cl-].[Cl-].[Cl-].[Cl-].[Pt+2] [TMPyP4 PtII] ?
Output line: 434 µM

----------
Tested on: PC3
Assay: Cytotoxicity (MTT) PC3
Assay type: cell-based, human
Details: pc3 cells
reported endpoint: IC50

Input line: Which measured IC50 value corresponds to C[n+]1ccc(-c2c3nc(c(-c4cc[n+](C)cc4)c4ccc([n-]4)c(-c4cc[n+](C)cc4)c4nc(c(-c5cc[n+](C)cc5)c5ccc2[n-]5)C=C4)C=C3)cc1.[Cl-].[Cl-].[Cl-].[Cl-].[Pt+2] ?
Output line: > 200 µM

----------
Tested on: BT-20
Assay: Cytotoxicity (MTT) BT-20
Format: cell-based, human
Conditions: Homo sapiens; BT-20 (breast), 4-7 days; read-out: IC 50 cytotoxicity
reported endpoint: IC50 (µM)
One number for each entry, in µM.

Input line: Request: IC50, test system BT-20, entry C[n+]1ccc(-c2c3nc(c(-c4cc[n+](C)cc4)c4ccc([nH]4)c(-c4cc[n+](C)cc4)c4nc(c(-c5cc[n+](C)cc5)c5ccc2[nH]5)C=C4)C=C3)cc1 [TMPyP4]
Output line: 106

----------
Target: human telomerase (Homo sapiens, UniProt O14746)
Sequence (O14746 whole entry): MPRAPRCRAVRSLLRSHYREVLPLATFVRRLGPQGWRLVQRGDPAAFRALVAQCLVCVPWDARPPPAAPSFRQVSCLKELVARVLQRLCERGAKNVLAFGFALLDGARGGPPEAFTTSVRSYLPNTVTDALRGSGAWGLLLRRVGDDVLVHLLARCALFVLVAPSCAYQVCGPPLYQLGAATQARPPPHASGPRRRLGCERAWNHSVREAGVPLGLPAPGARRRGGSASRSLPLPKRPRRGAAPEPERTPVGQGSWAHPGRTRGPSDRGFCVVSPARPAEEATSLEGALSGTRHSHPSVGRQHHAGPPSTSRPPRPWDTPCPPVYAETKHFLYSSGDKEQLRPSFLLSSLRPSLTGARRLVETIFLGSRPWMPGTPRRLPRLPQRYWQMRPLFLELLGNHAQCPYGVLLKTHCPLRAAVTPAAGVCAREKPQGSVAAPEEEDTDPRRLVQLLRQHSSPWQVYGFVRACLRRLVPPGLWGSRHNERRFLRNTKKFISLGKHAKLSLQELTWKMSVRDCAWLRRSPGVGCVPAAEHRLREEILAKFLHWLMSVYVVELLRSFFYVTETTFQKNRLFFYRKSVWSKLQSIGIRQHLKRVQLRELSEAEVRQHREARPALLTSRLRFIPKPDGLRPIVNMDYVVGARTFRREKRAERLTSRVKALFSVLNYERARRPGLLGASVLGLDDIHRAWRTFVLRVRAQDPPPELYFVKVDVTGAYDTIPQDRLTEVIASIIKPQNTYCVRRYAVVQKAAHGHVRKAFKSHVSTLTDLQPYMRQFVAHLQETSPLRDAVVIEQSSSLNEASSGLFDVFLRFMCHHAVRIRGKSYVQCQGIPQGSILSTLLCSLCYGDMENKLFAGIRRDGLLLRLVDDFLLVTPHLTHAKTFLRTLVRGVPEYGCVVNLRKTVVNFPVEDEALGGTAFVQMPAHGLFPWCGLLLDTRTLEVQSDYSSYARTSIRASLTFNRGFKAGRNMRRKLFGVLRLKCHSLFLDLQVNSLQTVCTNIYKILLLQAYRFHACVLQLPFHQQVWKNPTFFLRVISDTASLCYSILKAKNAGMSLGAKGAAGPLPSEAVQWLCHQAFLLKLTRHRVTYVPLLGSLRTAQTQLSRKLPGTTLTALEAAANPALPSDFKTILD
Test: Telomerase inhibition, primer extension assay in HeLa cell extract
Format: biochemical
Conditions: 25 μM; Table 13; read-out: % Inhibition of telomerase
Consider the following molecules; for each one, report its inhibition at 25 µM.
# output: numeric value plus its unit

>>> observed_measurement("Nc1ccc(-c2c3nc(c(-c4ccc(N)cc4)c4ccc([nH]4)c(-c4ccc(N)cc4)c4nc(c(-c5ccc(N)cc5)c5ccc2[nH]5)C=C4)C=C3)cc1")
"50%"

Kindly review the next molecule as well.
Input line: Which measured inhibition at 25 µM value corresponds to C[N+](C)(C)c1ccc(-c2c3nc(c(-c4ccc([N+](C)(C)C)cc4)c4ccc([nH]4)c(-c4ccc([N+](C)(C)C)cc4)c4nc(c(-c5ccc([N+](C)(C)C)cc5)c5ccc2[nH]5)C=C4)C=C3)cc1 ?
Output line: 18%

----------
Target: human telomerase (Homo sapiens, UniProt O14746)
Assay: Telomerase inhibition, primer extension assay in HeLa cell extract
Type: biochemical
Conditions: IC50 telomerase (text)
reported endpoint: pIC50
Give bare numbers, as −log10 of the molar value.

Input line: Which measured pIC50 value corresponds to C[n+]1ccc(-c2c3nc(c(-c4cc[n+](C)cc4)c4ccc([nH]4)c(-c4cc[n+](C)cc4)c4nc(c(-c5cc[n+](C)cc5)c5ccc2[nH]5)C=C4)C=C3)cc1 ?
Output line: 5.19

----------
System: Daudi
Experiment: cells
Type: cell-based, human
Details: daudi cells
reported endpoint: IC50 (µM)
Numbers only, in µM.

Input line: Which measured IC50 value corresponds to C[n+]1ccc(-c2c3nc(c(-c4cc[n+](C)cc4)c4ccc([n-]4)c(-c4cc[n+](C)cc4)c4nc(c(-c5cc[n+](C)cc5)c5ccc2[n-]5)C=C4)C=C3)cc1.[Cl-].[Cl-].[Cl-].[Cl-].[Pt+2] [TMPyP4 PtII] ?
Output line: 104
